Tested on: Diabrotica balteata
TEST_NAME: Diabrotica balteata spray test
Type: in vivo
APPLIED_CONDITIONS: Diabrotica balteata, 168 h, application rate 100 g/ha, after 7 days
REPORTED_PROPERTY: pest or weed control at 100 g/ha (%)
Supply the numeric figure in %, leaving out any unit text.

{"COMPOUND": "CCS(=O)(=O)c1ccc(-n2ncn(-c3ccc(Cl)c(Br)c3)c2=O)nc1-c1nc2cc(S(=O)(=O)C(F)(F)F)ccc2o1 [Example I-19]", "UNITS_TEXT": "%", "NUMERIC_READOUT": 100}
{"COMPOUND": "CCS(=O)(=O)c1ccc(-n2ncn(-c3cccc(F)c3)c2=O)nc1-c1nc2cc(S(=O)(=O)C(F)(F)F)ccc2o1 [Example I-14]", "UNITS_TEXT": "%", "NUMERIC_READOUT": 100}
{"COMPOUND": "CCS(=O)(=O)c1ccc(-n2ncn(C3CC3)c2=O)nc1-c1nc2cc(OC(F)(F)C(F)(F)F)ccc2o1 [Example I-49]", "UNITS_TEXT": "%", "NUMERIC_READOUT": 80}
{"COMPOUND": "CCS(=O)(=O)c1ccc(-n2ncn(-c3ccc(C4(C#N)CC4)cc3)c2=O)nc1-c1nc2cc(S(=O)(=O)C(F)(F)Cl)ccc2o1 [Example I-18]", "UNITS_TEXT": "%", "NUMERIC_READOUT": 100}

Returns the measured pest or weed control at 100 g/ha for the input compound. Input: CCS(=O)(=O)c1ccc(-n2ncn(-c3ccc(Cl)cc3)c2=O)nc1-c1nc2cc(C(F)(F)C(F)(F)F)ccc2o1 [Example I-45]
100

Returns the measured pest or weed control at 100 g/ha for the input compound. Input: CCS(=O)(=O)c1ccc(-n2ncn(-c3ccc(C#N)cc3)c2=O)nc1-c1nc2cc(S(=O)(=O)C(F)(F)Cl)ccc2o1 [Example I-10]
100

Returns the measured pest or weed control at 100 g/ha for the input compound. Input: CCS(=O)(=O)c1ccc(-n2ncn(C3CC3)c2=O)nc1-c1nc2cc(C(F)(F)C(F)(F)F)ccc2o1 [Example I-50]
100
